# Test system: Bacillus megaterium ATCC 9885
# EXPERIMENT: Antibacterial activity, MIC
# Assay type: cell-based
# CONDITION SET: Priestia megaterium, ATCC9885; ATCC 9885; agar two-fold dilution, 37° C., 20 hours; read-out: MIC
So basically: is MIC under 0.1 µg/mL? Then Satisfied. Not under? Then Not satisfied.

{"columns": ["COMPOUND", "SYSTEM TESTED", "GROUP"],
 "data": [
  ["CCO/N=C(\\C(=O)NC1C(=O)N2C(C(=O)[O-])=C(CSc3nc(N)cc(N)[n+]3N)CSC12)c1csc(N)n1 (stereo not drawn)", "Bacillus megaterium ATCC 9885", "Satisfied"],
  ["CC(O/N=C(\\C(=O)NC1C(=O)N2C(C(=O)[O-])=C(CSc3nc(N)cc(N)[n+]3C)CSC12)c1csc(N)n1)C(=O)O (stereo not drawn)", "Bacillus megaterium ATCC 9885", "Not satisfied"],
  ["CCC[n+]1c(N)cc(N)nc1SCC1=C(C(=O)[O-])N2C(=O)C(NC(=O)/C(=N\\OCC)c3nsc(N)n3)C2SC1 (stereo not drawn)", "Bacillus megaterium ATCC 9885", "Not satisfied"],
  ["CCO/N=C(\\C(=O)NC1C(=O)N2C(C(=O)[O-])=C(CSc3nc(N)cc(N)[n+]3-c3ccc(Cl)cc3)CSC12)c1csc(N)n1 (stereo not drawn)", "Bacillus megaterium ATCC 9885", "Satisfied"],
  ["C#CCO/N=C(\\C(=O)NC1C(=O)N2C(C(=O)[O-])=C(CSc3nc(N)cc(N)[n+]3N)CSC12)c1csc(N)n1 (stereo not drawn)", "Bacillus megaterium ATCC 9885", "Satisfied"],
  ["C=CC[n+]1c(N)cc(N)nc1SCC1=C(C(=O)[O-])N2C(=O)C(NC(=O)/C(=N\\OC(C)(C)C(=O)O)c3csc(N)n3)C2SC1 (stereo not drawn)", "Bacillus megaterium ATCC 9885", "Not satisfied"],
  ["C=CCO/N=C(\\C(=O)NC1C(=O)N2C(C(=O)[O-])=C(CSc3nc(N)cc(N)[n+]3C)CSC12)c1csc(N)n1 (stereo not drawn)", "Bacillus megaterium ATCC 9885", "Not satisfied"],
  ["C[n+]1c(N)cc(N)nc1SCC1=C(C(=O)[O-])N2C(=O)C(NC(=O)/C(=N\\OC(C)(C)C(=O)O)c3nsc(N)n3)C2SC1 (stereo not drawn)", "Bacillus megaterium ATCC 9885", "Not satisfied"],
  ["C=CC[n+]1c(N)cc(N)nc1SCC1=C(C(=O)[O-])N2C(=O)C(NC(=O)/C(=N\\OC(C)C(=O)O)c3csc(N)n3)C2SC1 (stereo not drawn)", "Bacillus megaterium ATCC 9885", "Not satisfied"],
  ["CCC[n+]1c(N)cc(N)nc1SCC1=C(C(=O)[O-])N2C(=O)C(NC(=O)/C(=N\\OC(C)C(=O)O)c3csc(N)n3)C2SC1 (stereo not drawn)", "Bacillus megaterium ATCC 9885", "Not satisfied"],
  ["CCO/N=C(\\C(=O)NC1C(=O)N2C(C(=O)[O-])=C(CSc3nc(N)cc(N)[n+]3CC)CSC12)c1nsc(N)n1 (stereo not drawn)", "Bacillus megaterium ATCC 9885", "Not satisfied"],
  ["CC[n+]1c(N)cc(N)nc1SCC1=C(C(=O)[O-])N2C(=O)C(NC(=O)/C(=N\\OC)c3nsc(N)n3)C2SC1 (stereo not drawn)", "Bacillus megaterium ATCC 9885", "Not satisfied"]
]}
